The entries below are paired with their reported T/C.
Tested on: P388 leukemia ip, CD2F1 mice, survival T/C
Assay: NCI In Vivo Anticancer Drug Screen. Data for tumor model P388 Leukemia (intraperitoneal) in CD2F1 (CDF1) mice
Settings: endpoint: median survival time; dose: 200.0 mg/kg/injection; schedule: Q01DX005 (ip); vehicle: saline; higher = longer survival
Toxic doses and inconclusive results are not listed. Peptide text beside a SMILES is read from it.

Previously resolved entries follow.
NC1CCCCCCC1; 117 % of control
CC(O)C(N)C(=O)NC(Cc1ccc(O)cc1)C(=O)NC(CCCCN)C(=O)O (stereo not drawn) (H-Thr-Tyr-Lys-OH; configuration not given here); 106 % of control

q: State T/C on P388 leukemia ip, CD2F1 mice, survival T/C. Entry: C=C(C)C1CCC2(C1)C(C)=CCCC2C (stereo not drawn)
a: 99 % of control
